test system: RPMI-8226 leukemia; assay: NCI tumour cell line growth inhibition, 48 h; in the data active = GI50 below about 0.43 µM; inactive = the rest
Parameter call: string, one of YES for active, NO for inactive

What classification did COc1cc(N2CCC(N3CCN(C)CC3)CC2)ccc1Nc1ncc(Cl)c(Nc2ccccc2S(=O)(=O)C(C)C)n1 end up with in this test? NO

What classification did CCN1CCN(c2ccc(Nc3ncc4ccc5ncn(C(C)C)c5c4n3)nc2)CC1 end up with in this test? YES

What classification did Cc1nn(C)c2cc(N(C)c3ccnc(Nc4cccc(S(N)(=O)=O)c4)n3)ccc12 end up with in this test? NO

What classification did COc1cc(C)c(NC(=O)CN(C)C)cc1Nc1nc(Nc2cccc(F)c2C(N)=O)c2cc[nH]c2n1 end up with in this test? NO

====

system: M14 melanoma; test: NCI tumour cell line growth inhibition, 48 h; in the data active means GI50 below about 0.43 µM; inactive means the rest
Parameter call: string, one of active, inactive

What classification did C[C@@H]1OCC2(CCN(c3cnc(Sc4ccnc(N)c4Cl)c(N)n3)CC2)[C@@H]1N end up with in this test? inactive

What classification did COC(C)(C)[C@H](O)C(O)CC(C)[C@@H]1CCC23CC12CCC1[C@@]2(C)CCC(OC(C)=O)C(C)(C)C2CC(OC2OC(COC(C)=O)C(O)C(O)C2O)[C@]13C (some centres not stated) end up with in this test? inactive

What classification did COc1cc(/C=C2\C[C@H]3[C@@H]4CC=C5C[C@@H](OC(C)=O)CC[C@]5(C)[C@H]4CC[C@]3(C)[C@H]2OC(C)=O)ccc1OCCN1CCCCC1 end up with in this test? inactive

What classification did CC[CH2][Sn]([CH2]CC)([O]C(=O)Cc1ccc(F)cc1)[O][Sn]([CH2]CC)([CH2]CC)[O]C(=O)Cc1ccc(F)cc1 end up with in this test? active

What classification did N#Cc1nn(-c2cc(=O)[nH]c3ccc(Br)cc23)c(N)c1C#N end up with in this test? inactive

What classification did COc1cc(N2CCC(N3CCN(C)CC3)CC2)ccc1Nc1ncc(Cl)c(Nc2ccccc2S(=O)(=O)C(C)C)n1 end up with in this test? inactive

What classification did COc1ccc(C2CC(=O)c3c(O)c(OC)c(OC)c(OC)c3O2)cc1O (configuration not stated) end up with in this test? active

What classification did O=S(=O)(Nc1ccccn1)c1ccc(N=Nc2ccc(O)c3ncccc23)cc1 end up with in this test? inactive

What classification did C=CCSSc1ncnc2c1ncn2C1OC(CO)C(O)C1O (configuration not stated) end up with in this test? inactive

What classification did CN1CCN(CC(=O)N2c3cccc4cccc(c34)N(C(=O)CN3CCN(C)CC3)C2c2cn(-c3ccccc3)nc2-c2cccc([N+](=O)[O-])c2)CC1 end up with in this test? inactive

What classification did COc1cc2c(cc1OCCCN1CCN(c3ncnc4ccccc34)CC1)N=CC1CCCN1C2=O (configuration not stated) end up with in this test? active

What classification did C=C(C)[C@@H]1CC[C@]2(C(N)=O)CC[C@]3(C)[C@H](CC[C@@H]4[C@@]5(C)C/C(=C/c6cccnc6)[C@H](O)C(C)(C)[C@@H]5CC[C@]43C)[C@@H]12 end up with in this test? inactive

What classification did COC1=C(OC)[C@]2(OC)c3c(O)c(OC)c4c(c3O[C@@]23O[C@@H](c2ccccc2)CC=C3C1=O)[C@@H](O)C[C@H](c1ccccc1)O4 end up with in this test? active

What classification did Cc1ccc(C2=NN(c3ccc(S(N)(=O)=O)cc3)C(c3cn(-c4ccccc4)nc3-c3ccccc3)C2)cc1 (configuration not stated) end up with in this test? inactive

What classification did Cc1nc2sc(C(=O)Nc3cccc(Br)c3)c(N)c2cc1C(O)c1ccccc1 (configuration not stated) end up with in this test? inactive

What classification did C/C=C/C1=CN2C(=O)c3cc(OC4OC(C)C(NC)C(C)(O)C4O)c(C)c(O)c3N=C[C@@H]2C1 (some centres not stated) end up with in this test? active

What classification did Oc1c(I)cc(I)cc1CN(Cc1ccccn1)Cc1ccccn1 end up with in this test? inactive

====

system: MDA-MB-435; assay: NCI tumour cell line growth inhibition, 48 h
Assignment: determine reported TGI for the given molecules.

Check the records and state TGI for CC(=O)[O][Bi]([c]1ccccc1)[c]1ccccc1 22.2 µM

Check the records and state TGI for O=C(c1cccs1)N(Cc1cccnc1)C(=S)N(Cc1cccnc1)C(=O)c1cccs1 > 100 µM

Check the records and state TGI for CCO/C=C(\C(=O)OC)S(=O)(=O)c1ccc(C)cc1 > 100 µM

Check the records and state TGI for CN1CCc2cc(N)cc3c2C1Cc1ccc2c(c1-3)OCO2 (stereo not given) > 100 µM

Check the records and state TGI for COc1ccc(C2c3c(-c4ccccc4)nn(-c4ccccc4)c3Oc3ncn4nc(CC#N)nc4c32)cc1OC (stereo not given) > 100 µM

====

system: A549 NSCLC; experiment: NCI tumour cell line growth inhibition, 48 h
MEASURED_ATTRIBUTE: TGI

Check the records and state TGI for COc1cc(N2CCC(N3CCN(C)CC3)CC2)ccc1Nc1ncc(Cl)c(Nc2ccccc2S(=O)(=O)C(C)C)n1 2.03 µM

Check the records and state TGI for FC(F)(F)c1cccc(C2SCc3nc4ccccc4n32)c1 (stereo not given) > 100 µM

Check the records and state TGI for O=C(COc1ccc(Cl)cc1Cl)N/N=C/C=C/c1ccc([N+](=O)[O-])o1 > 100 µM

Check the records and state TGI for COc1ccc2c(c1)CC[C@@H]1[C@@H]2CC[C@]2(C)C(=O)/C(=C/c3ccc(O)c(OC)c3)C[C@@H]12 > 100 µM

Check the records and state TGI for C=CCC1C(=O)Nc2cccc3ncn(c23)C1=O (stereo not given) > 100 µM

Check the records and state TGI for O=c1/c(=C/c2ccc([N+](=O)[O-])o2)sc2n1[C@@H](c1ccc3c(c1)OCO3)C=C(c1cc(F)c(Cl)cc1Cl)N=2 > 100 µM

Check the records and state TGI for Cc1ccc(C2SCC(=O)N2NC(=O)c2ccncc2)s1 (stereo not given) > 100 µM

Check the records and state TGI for CC(=O)CCC[C@H](C)[C@@H](O)[C@@H]1O[C@H]([C@@]2(C)CCC(=O)O2)C[C@H]1C(=O)O > 100 µM

Check the records and state TGI for O=C1COCCN1C(=O)c1ccccc1Cl > 100 µM

Check the records and state TGI for COc1cccc(C2c3cc4c(cc3OC(N3CCCCC3)C2C)OCO4)c1OC (stereo not given) 22.3 µM

====

tested on: IGROV1 ovarian; test: NCI tumour cell line growth inhibition, 48 h
MEASURED_ATTRIBUTE: TGI (µM)
Answer with a number only, understood to be in µM.

Check the records and state TGI for O=c1/c(=C/c2ccc([N+](=O)[O-])o2)sc2n1[C@@H](c1ccc3c(c1)OCO3)C=C(c1cc(F)c(Cl)cc1Cl)N=2 33.4

Check the records and state TGI for O=C(COc1ccc(Cl)cc1Cl)N/N=C/C=C/c1ccc([N+](=O)[O-])o1 6.79

Check the records and state TGI for COc1cc(Nc2nc3cc(C(F)(F)F)ccc3nc2C)cc(OC)c1OC 32

Check the records and state TGI for Cc1ccc(N2C(=O)C(Cl)=C(Cl)C2=O)cc1 43.4

====

Assignment: determine reported TGI for the given compounds.
system: OVCAR-8 ovarian; assay: NCI tumour cell line growth inhibition, 48 h

With OVCAR-8 ovarian as the test system, provide measured TGI for this compound: CCOC(=O)N1C=CC(=C2C(=C3C=CN(C(=O)OCC)C=C3)C(=C3C=CN(C(=O)OCC)C=C3)C2=C2C=CN(C(=O)OCC)C=C2)C=C1 71.5 µM

With OVCAR-8 ovarian as the test system, provide measured TGI for this compound: COc1ccc(C(SCC(N)C(=O)O)(c2ccc(OC)cc2)c2ccc(OC)cc2)cc1 (stereo unspecified) 18 µM

With OVCAR-8 ovarian as the test system, provide measured TGI for this compound: Nc1ccc(-c2ccc(-c3nc4cc(Cl)c(Cl)cc4[nH]3)cc2)cc1 > 92.9 µM

With OVCAR-8 ovarian as the test system, provide measured TGI for this compound: C=C(CN)CO[Si](C)(C)C(C)(C)C > 100 µM

With OVCAR-8 ovarian as the test system, provide measured TGI for this compound: COC(=O)[C@@H]1OC(C)(c2ccccc2)O[C@H]1C(=O)OC > 100 µM

With OVCAR-8 ovarian as the test system, provide measured TGI for this compound: CCO/C=C(\C(=O)OC)S(=O)(=O)c1ccc(C)cc1 > 100 µM

====

tested on: NCI-H226 lung; assay: NCI tumour cell line growth inhibition, 48 h
Assignment: determine reported TGI for the given compounds.

Check the records and state TGI for O=C(N/N=C(\c1nc2ccc(Cl)cc2[nH]c1=O)C(O)c1ccccc1Cl)c1ccncc1 (centres undefined) > 100 µM

Check the records and state TGI for COc1ccc(C2C(C=O)C(N3CCN(C)CC3)=Nc3nc4ccccc4n32)cc1 (centres undefined) 38.2 µM

Check the records and state TGI for O=C(CC(=O)N1N=C(N(c2ccccc2)c2ccccc2)CC1c1ccccc1)Nc1ccccc1 (centres undefined) > 100 µM

Check the records and state TGI for CCOC(=O)N1C=CC(=C2C(=C3C=CN(C(=O)OCC)C=C3)C(=C3C=CN(C(=O)OCC)C=C3)C2=C2C=CN(C(=O)OCC)C=C2)C=C1 71 µM

Check the records and state TGI for C[C@]12CCC(=O)C=C1CC[C@@H]1[C@@H]2[C@@H](O)C[C@@]2(C)[C@H]1CC[C@]2(O)C(=O)COC(=O)C1CCCC1 > 100 µM

Check the records and state TGI for N#C[S-].[Ce+3].c1cnc2c(c1)ccc1cccnc12.c1cnc2c(c1)ccc1cccnc12.c1cnc2c(c1)ccc1cccnc12 8.24 µM

Check the records and state TGI for CC(CN)[C@@H]1CC[C@]2(CO)CC[C@]3(C)[C@H](CC[C@@H]4[C@@]5(C)CCC(N)C(C)(C)[C@@H]5CC[C@]43C)[C@@H]12 (some centres undefined) 4.04 µM

Check the records and state TGI for O=C(O)C1=NN(c2ccc(S(=O)(=O)O)cc2)C2(C1)SCC(=O)N2c1nc2ccccc2s1 (centres undefined) > 100 µM

Check the records and state TGI for C/C(=N/NC(N)=S)C(CN(C)C)C(C1=C(O)c2ccccc2OC1)c1ccccc1 (centres undefined) > 100 µM

Check the records and state TGI for CCOC(=O)Nn1c(C)cc(C(=O)OC)c1C > 100 µM

Check the records and state TGI for c1cc(NC2=NCCO2)c2c(c1)OCO2 > 100 µM

Check the records and state TGI for O=C(O)CCSC(=S)Nc1ccc([N+](=O)[O-])cc1 > 100 µM

Check the records and state TGI for Fc1cccc(-c2[nH]nc3nc(Nc4cccnc4)sc23)c1 > 100 µM

Check the records and state TGI for COc1ccc2c(c1)C(=O)c1c-2c(NCCN(C)C)nc2ccccc12 32.5 µM

Check the records and state TGI for CC/C(SC)=[N+](\C)[O-] > 100 µM

Check the records and state TGI for O=C1NC2C(CCO)CC=C[C@H]2c2cc3c(cc21)OCO3 (some centres undefined) > 100 µM

Check the records and state TGI for COC(=O)N/N=C(/Cc1occc(=O)c1O)C(=O)Nc1ccc([N+](=O)[O-])cc1[N+](=O)[O-] > 100 µM

Check the records and state TGI for COc1ccc(N=CN(C)C)c(C)c1 64.5 µM

Check the records and state TGI for CCCc1c(C(=O)OCC)[nH]c(C(=O)CCC(=O)c2[nH]c(C(=O)OCC)c(CCC)c2C(=O)OCC)c1C(=O)OCC > 100 µM
